# assayText: Percent encapsulation of mRNA in lipid nanoparticles (Quant-iT Ribogreen)
# Type: physicochemical
# conditions: Table 2; leptin mRNA in LNP with the cationic lipid
Threshold-based label: % encapsulation mRNA Leptin under 90% gives yes (1), % encapsulation mRNA Leptin not under 90% gives no (0).

Q: Does this molecule meet the criterion % encapsulation mRNA Leptin < 90%? CCCCCCCC(=O)OCCCCCCCCCCC(CCOC(=O)CCCCCC(CCCCCC)CCCCCC)OC(=O)OCCCN(C)C (centres unmarked) [Example 64]
Result: no (0)

Q: Please indicate whether the reported % encapsulation mRNA Leptin of CCCCCCCCCCCCC(CCC(=O)OC(COC(=O)CCCCCCCCCCC)COC(=O)CCCCCCCCCCC)OC(=O)OCCCN(C)CC (centres unmarked) [Example 89] is strictly below 90%.
Result: yes (1)

Q: Is 90% strictly greater than the molecule's reported % encapsulation mRNA Leptin? molecule: CCCCCCCCCCCCC(CCOC(=O)CCCCC(OCCCCCCCC)OCCCCCCCC)OC(=O)[C@H]1CCCN1C (some centres unmarked) [Example 117]
Result: yes (1)

Q: Regarding CCCCCCCCCCCCC(CCOC(=O)CCC(OCC(CCC)CCC)OCC(CCC)CCC)OC(=O)OCCCN(CC)CC (centres unmarked) [Example 13] , kindly confirm whether its % encapsulation mRNA Leptin is beneath 90%.
Result: yes (1)

Q: Lab note: % encapsulation mRNA Leptin threshold 90%. Does this molecule come in strictly under it? CCCCCCCCCCCCC(CCOC(=O)CCCCCCC(OCC(CCC)CCC)OCC(CCC)CCC)OC(=O)OCCCN(CC)CC (centres unmarked) [Example 21]
Result: no (0)

Q: % encapsulation mRNA Leptin under 90%? Item: CCCCCCCCCCCCC(CCOC(=O)OCCCC(OCCCCCCCC)OCCCCCCCC)OC(=O)OCCCN(CC)CC (centres unmarked) [Example 130]
Result: no (0)

Q: Check if % encapsulation mRNA Leptin falls below 90% for CCCCCCCCCCCCC(CCOC(=O)CCCCC(OCCCCCC)OCCCCCC)OC(=O)OCCCN(CC)CC (centres unmarked) [Example 17] .
Result: yes (1)

Q: Determine if CCCCCCCCCCCCC(CCOC(=O)CCC(OCCCCCCCC)OCCCCCCCC)OC(=O)OCCCN(CC)CC (centres unmarked) [Example 11] shows % encapsulation mRNA Leptin strictly lower than 90%.
Result: no (0)

Q: % encapsulation mRNA Leptin strictly < 90% for this molecule? CCCCCCCCCCCCC(CCOC(=O)CCCCC(OCCCCCCCC)OCCCCCCCC)OC(=O)OCC1CCN(C)CC1 (centres unmarked) [Example 111]
Result: yes (1)

Q: is_below(% encapsulation mRNA Leptin, 90%) for CCCCCCCCOC(CCCCC(=O)OCCC(CCCOC(=O)CCCCCCC)OC(=O)OCCCN(CC)CC)OCCCCCCCC (centres unmarked) [Example 128] ?
Result: yes (1)

Q: # strict comparison: is reported % encapsulation mRNA Leptin < 90%? input = CCCCCCCCCCCCC(CCOC(=O)CCCCC(OCC(CC)CCCC)OCC(CC)CCCC)OC(=O)OCCCN(CC)CC (centres unmarked) [Example 18]
Result: no (0)

Q: Decide: % encapsulation mRNA Leptin of CCCCCCCCCCCCC(CCOC(=O)CCCCC(OCCC(CC)CC)OCCC(CC)CC)OC(=O)OCCCN(C)C (centres unmarked) [Example 116] strictly below 90%?
Result: no (0)

Q: Hi there! Is % encapsulation mRNA Leptin for CCCCC/C=C\C/C=C\CCCCCCCC(=O)OCC(COC(=O)CCCCCCC/C=C\C/C=C\CCCCC)OC(=O)C(CCCCCCCCCCCC)OC(=O)OCCCN(C)C (centres unmarked) [Example 98] below 90%, do you know?
Result: yes (1)

Q: Quick check: % encapsulation mRNA Leptin of CCCCCCCCCCCCC(CCOC(=O)CCCCC(OCCCCCCCC)OCCCCCCCC)OC(=O)[C@H]1CCCN1 (some centres unmarked) [Example 119] under 90%?
Result: no (0)

====

# assayText: Particle size and PDI of lipid nanoparticles by dynamic light scattering (Malvern Zetasizer)
# Assay type: physicochemical
# conditions: FLuc mRNA LNP
I'd appreciate it if you could supply PDI values for the items below.
// print number alone

Q: Which value of PDI has been reported for CCCCCCCCCCCCC(CCOC(=O)CCCCC(OCCCCCCCC)OCCCCCCCC)OC(=O)OCCCN(CC)CC (stereo not shown) in the records?
Result: 0.145

Q: Item CCCCC/C=C\C/C=C\CCCCCCCCC(CCC(=O)OC(COC(=O)CCCCCCC)COC(=O)CCCCCCC)OC(=O)OCCCN(C)C (stereo not shown) has what recorded PDI?
Result: 0.093

Q: Please give the measured PDI for this compound: CCCCC/C=C\C/C=C\CCCCCCCC(=O)OCC(COC(=O)CCCCCCC/C=C\C/C=C\CCCCC)OC(=O)CCC(CCCCCCCCCCCC)OC(=O)OCCCN(C)C (stereo not shown)
Result: 0.085

Q: Need PDI, item CCCCCCCCCCCCC(CCOC(=O)CCCCC(COC(=O)CCCCCCC)COC(=O)CCCCCCC)OC(=O)OCCCN(CC)CC (stereo not shown)
Result: 0.100

====

Kindly supply the reported PDI values for the records listed here.
# assayText: Particle size and polydispersity by DLS of RSV-F replicon LNPs
# Format: physicochemical
# conditions: RSV-F replicon LNP prepared for 1st IM

Q: For the compound shown here, CCCCCCCCCCCCC(CCCOC(=O)CCCCC(COC(=O)CCCCCCC)COC(=O)CCCCCCC)OC(=O)C1(C)CCN(C)CC1 (centres unmarked) [Example 131] , give the reported PDI.
Result: 0.119

Q: // lookup PDI for CCCCCCCCCCCCC(CCOC(=O)CCCCC(COC(=O)CCCCCCC)COC(=O)CCCCCCC)OC(=O)OCCCN(CC)CC (centres unmarked) [Example 1]
Result: 0.105

Q: Entry under review: CCCCC/C=C\C/C=C\CCCCCCCCC(CCCOC(=O)CCC(=O)OC(CCCCCCCC)CCCCCCCC)OC(=O)OCCCN(C)C (centres unmarked) [Example 58] . Reported PDI?
Result: 0.111

Q: Fill in: PDI of CCCCC/C=C\C/C=C\CCCCCCCC(=O)OCC(COC(=O)CCCCCCC/C=C\C/C=C\CCCCC)COC(=O)CCC(CCCCCCCCCCCC)OC(=O)OCCCN(C)C (centres unmarked) [Example 105] is ___
Result: 0.107

Q: Which PDI value is on record for CCCCCCCCCCCCC(CCOC(=O)CCCCC(OCC(CC)CCCC)OCC(CC)CCCC)OC(=O)OCCCN(CC)CC (centres unmarked) [Example 18] ?
Result: 0.13

Q: Name the reported PDI value associated with the compound CCCCCCCCCCCCC(CCOC(=O)CCCCC(OCC(CCC)CCC)OCC(CCC)CCC)OC(=O)OCCCN(C)C (centres unmarked) [Example 115]
Result: 0.075

Q: Bench note: what PDI did CCCCCCCCCC(=O)OCCC(CC(CCCCCCCC)CCCCCCCC)OC(=O)OCCCN(C)C (centres unmarked) [Example 70] show?
Result: 0.121

Q: Consider the compound CCCCC/C=C\C/C=C\CCCCCCCC(=O)OCC(COC(=O)CCCCCCC/C=C\C/C=C\CCCCC)OC(=O)C(CCCCCCCCCCCC)OC(=O)OCCCN(C)C (centres unmarked) [Example 98] and give its measured PDI.
Result: 0.07

====

For each of the molecules below, state its % encapsulation mRNA Leptin.
# assayText: Percent encapsulation of mRNA in lipid nanoparticles (Quant-iT Ribogreen)
# Assay type: physicochemical
# conditions: Table 2; leptin mRNA in LNP with the cationic lipid
Give just the numeric value; % need not be written.

Q: % encapsulation mRNA Leptin lookup needed for CCCCCCCCCCCCC(CCOC(=O)CCC(OCC(CCC)CCC)OCC(CCC)CCC)OC(=O)OCCCN(C)C (stereo not shown) , thanks.
Result: 98.9

Q: Which % encapsulation mRNA Leptin value is on record for CCCCC/C=C\C/C=C\CCCCCCCCC(CCCOC(=O)CCC(=O)OC(CCCCCCCC)CCCCCCCC)OC(=O)OCCCN(C)C (stereo not shown) ?
Result: 90.2

Q: Quick one: % encapsulation mRNA Leptin for CCCCCCCCOC(CCCCC(=O)OCCC(CCCCCCCC)OC(=O)OCCCN(CC)CC)OCCCCCCCC (stereo not shown) ?
Result: 95.1

Q: Endpoint output: % encapsulation mRNA Leptin of CCCCCCCCCCCCCC(=O)OCC(COC(=O)CCCCCCCCCCCCC)OC(=O)CCC(CCCCCCCCCCCC)OC(=O)OCCCN(C)CC (stereo not shown) . Value?
Result: 68.5

====

Assign PDI to each entry below.
# assayText: Particle size and PDI of lipid nanoparticles by dynamic light scattering (Malvern Zetasizer)
# Format: physicochemical
# conditions: mEPO mRNA LNP
Lab note: jot the number down without any unit.

Q: GET /values?readout=PDI&item= CCCCC/C=C\C/C=C\CCCCCCCC(=O)OCC(COC(=O)CCCCCCC/C=C\C/C=C\CCCCC)OC(=O)CCC(CCCCCCCCCCCC)OC(=O)OCCCN(C)C (stereo not shown) [Example 80]
Result: 0.083

Q: For CCCCCCCCCCCCC(CCOC(=O)CCCCC(OCCCCCCCC)OCCCCCCCC)OC(=O)OCCCN(CC)CC (stereo not shown) [Example 16] , what is its reported PDI?
Result: 0.112

Q: Query (compound): CCCCCCCCCCCCC(CCOC(=O)CCCCC(COC(=O)CCCCCCC)COC(=O)CCCCCCC)OC(=O)OCCCN(CC)CC (stereo not shown) [Example 1] ; field requested: PDI
Result: 0.073

Q: Quick one: PDI of CCCCC/C=C\C/C=C\CCCCCCCCC(CCC(=O)OC(COC(=O)CCCCCCC)COC(=O)CCCCCCC)OC(=O)OCCCN(C)C (stereo not shown) [Example 94] ?
Result: 0.099
